- System: SUM149PT spheroids with HUVEC/MSC, viability
- EXPERIMENT_DESCRIPTION: Anticancer human tumor SUM149PT cell line growth inhibition [GQUAD];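 further: spheroids exposed to drugs for seven days before readout; percent viability relative to DMSO vehicle control taken as 100%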
- TEST_SETTINGS: second compound 3.16 µM; first compound 1 µM; active compounds read low
Please respond with label 1 when measured viability, T/C is strictly beneath 80%, and with label 0 in all other cases.

Solved cases (3 shown):
- COMPOUND: "O=c1[nH]cc(F)c(=O)[nH]1 + Cc1[nH]c2ccc(F)cc2c1-c1nc2c3cccnc3c3ncccc3c2[nH]1"
  ANSWER_LABEL: "label 0"
- COMPOUND: "C=CC(=O)N1CCN(c2nc(=O)n(-c3c(C)ccnc3C(C)C)c3nc(-c4c(O)cccc4F)c(F)cc23)C(C)C1 (stereo not given) + Cc1cnc(CNC(=O)c2c(=O)c3ccc(N4CCCN(C)CC4)nc3n3c2sc2ccccc23)cn1"
  ANSWER_LABEL: "label 1"
- COMPOUND: "O=C(c1cc(Cc2n[nH]c(=O)c3ccccc23)ccc1F)N1CCN(C(=O)C2CC2)CC1 + Cc1cnc(CNC(=O)c2c(=O)c3ccc(N4CCCN(C)CC4)nc3n3c2sc2ccccc23)cn1"
  ANSWER_LABEL: "label 1"

# next compound below
Strictly below 80%: is that where viability, T/C of O=C(NO)c1cnc(N2CCN(S(=O)(=O)c3ccc4ccccc4c3)CC2)nc1 + CN(C)c1ccc(Nc2c3ccc(NC(=O)CCN4CCCC4)cc3nc3cc(NC(=O)CCN4CCCC4)ccc23)cc1 sits? label 1
